system: Carbonic anhydrase 2 (Homo sapiens) (UniProt P00918)
assayText: compounds binding carbonic anhydrase 2 – biochemical, small-molecule microarray, Alexa647-labelled CAII, profiling panel (AID 1122)
conditionsUsed: CAII-A647 binding fluorescence, higher = more signal
Records here are stratified by composite z-score; strata: bottom bin = under 0.1, middle bin = from 0.1 up to 0.7, top bin = 0.7 and over

compound: COC(=O)C1=CC(CCCO)=CC(c2cccs2)N(C)C=C1C(=O)OC (stereo not given)
system: Carbonic anhydrase 2 (Homo sapiens) (UniProt P00918)
label: top bin

compound: CCCCC[C@H]1OC[C@@]23C=C(Br)[C@@H](CC12)[C@@]1(CO1)C3=O (stereo not given in full)
system: Carbonic anhydrase 2 (Homo sapiens) (UniProt P00918)
label: bottom bin

compound: COc1cccc(C)c1NC(=O)O[C@H]1[C@H](OC(=O)Nc2ccc3c(c2)OCO3)[C@@H](OC(=O)Nc2ccc3c(c2)OCO3)[C@@H](OC)O[C@@H]1CO
system: Carbonic anhydrase 2 (Homo sapiens) (UniProt P00918)
label: middle bin

compound: O=C1C2C=CC(C(O)c3ccco3)N(Nc3ccccc3F)C2C(=O)N1c1ccccc1 (stereo not given)
system: Carbonic anhydrase 2 (Homo sapiens) (UniProt P00918)
label: bottom bin

compound: O=C(Cc1ccccc1)[C@H]1C2C=CCCC(c3ccccc3)=C2CN1Cc1ccccc1 (stereo not given in full)
system: Carbonic anhydrase 2 (Homo sapiens) (UniProt P00918)
label: bottom bin

compound: C=C(/C(=C/C[C@H](OC(C)=O)c1ccc(CO)o1)c1cnc2ccccc2c1)C(C)C
system: Carbonic anhydrase 2 (Homo sapiens) (UniProt P00918)
label: top bin

compound: CC(C)[Si](C#CCCCC#N)(O[C@H](c1ccccc1)c1cn(Cc2ccccc2)nn1)C(C)C
system: Carbonic anhydrase 2 (Homo sapiens) (UniProt P00918)
label: middle bin

compound: COC(=O)[C@@]1(Cc2ccc(OC)cc2)[C@H]2c3cc(C(=O)N4CCCC4)n(CCO)c3C[C@H]2CN1C(=O)c1ccccc1
system: Carbonic anhydrase 2 (Homo sapiens) (UniProt P00918)
label: top bin

compound: CC(=O)N1CC2(CC2)CC1c1ccccc1 (stereo not given)
system: Carbonic anhydrase 2 (Homo sapiens) (UniProt P00918)
label: middle bin

compound: C[C@@H]1NC(=O)[C@@H](Cc2ccccc2)NC(=O)[C@@]23C(=O)N[C@@H](Cc4ccccc4)C2[C@H](C)[C@@]2(C)O[C@H]2C3/C=C/C/C=C\CNC1=O (stereo not given in full)
system: Carbonic anhydrase 2 (Homo sapiens) (UniProt P00918)
label: middle bin

compound: O=C1O[C@@H](c2ccccc2)[C@@H](c2ccccc2)N2[C@@H](c3ccc(OCCO)cc3)[C@]3(C(=O)Nc4ccc(C#CC5=CCCCC5)cc43)[C@@H](C(=O)NC[C@H](O)c3ccccc3)[C@H]12
system: Carbonic anhydrase 2 (Homo sapiens) (UniProt P00918)
label: middle bin

compound: COCCOC(=O)N1C(=O)[C@@]2(c3cc(C#CCCO)ccc31)[C@H](C(=O)Nc1nc3ccccc3s1)[C@H]1C(=O)O[C@H](c3ccccc3)[C@H](c3ccccc3)N1[C@@H]2c1ccc(O)cc1
system: Carbonic anhydrase 2 (Homo sapiens) (UniProt P00918)
label: middle bin

compound: C=CCC(OC(C)=O)[C@@H]1[C@@H](N(Cc2cccc3ccccc23)C(=O)Cc2ccc(F)cc2)c2cc(OCCCO)ccc2N1C(=O)c1ccc2ccccc2c1 (stereo not given in full)
system: Carbonic anhydrase 2 (Homo sapiens) (UniProt P00918)
label: bottom bin

---

assayText: probe aNog binding to arrayed compounds – biochemical, biotinylated probe, 635/667 nm fluorescence, primary screen (AID 1115);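 also: probe is biotinylated aNog protein used at 0.15 µg/mL for 1 h at 4 C; z-score combines 667 nm fluorescence of each spot with its signal to noise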
conditionsUsed: small-molecule microarray, higher = more signal

compound: CC(C)C(O)C1C=CC2C(=O)N(c3ccccc3)C(=O)C2N1Nc1ccccc1 (centres undefined)
composite z-score: 1.32
//
compound: CO[C@H]1O[C@H](CO)[C@@H](OC(=O)Nc2ccccc2)[C@H](OC(=O)c2cc3ccccc3[nH]2)[C@H]1OC(=O)c1cc2ccccc2[nH]1
composite z-score: -0.367
//
compound: CC(C)=C1C(=O)C(c2ccccc2)=C2CN3C(=O)N(CCc4ccccc4)C(=O)[C@]3(Cc3ccc(C(F)(F)F)cc3)[C@H]21
composite z-score: -0.781
//
compound: C=CCN1C(=O)[C@]2(CCS(=O)(=O)c3ccccc3)N=C(c3ccc(OCCCO)cc3)O[C@@H]2c2ccccc21
composite z-score: 0.033
//
compound: CC(C)N1C(=O)C[C@@](C(=O)O)(c2ccc([N+](=O)[O-])cc2)[C@H]1c1ccc(CO)cc1
composite z-score: -0.409
//
compound: CC1CC/C=C\[C@H]2OC34C=CCN(c5ccc(Cl)cc5)C(=O)[C@H]3N(C(C)CO)C(=O)[C@]4(C)C2C(=O)O1 (some centres undefined)
composite z-score: -0.0133
//
compound: Cn1cccc1C(O)C1C=CC2C(=O)N(c3ccccc3)C(=O)C2N1Nc1ccccc1 (centres undefined)
composite z-score: 0.977
//
compound: CC(C)NC(=O)[C@@]1(C)c2ccccc2C(=O)N(Cc2ccc(OC(F)(F)F)cc2)[C@H]1c1ccc(CO)cc1
composite z-score: -0.472
//
compound: CCCNC(=O)[C@@H]1c2ccccc2C(=O)N(Cc2ccc(OC(F)(F)F)cc2)[C@H]1c1ccc(CO)cc1
composite z-score: 0.0303
//
compound: COCCCNC(=O)[C@@]1(Sc2ccc(C)cc2)CC(=O)N(C2Cc3ccccc3C2)[C@@H]1c1ccc(CO)cc1
composite z-score: 0.551
//
compound: CCCC[C@@H](O)C1=C(COc2ccccc2)C[C@H]2C(=O)N(Cc3ccccc3)C(=O)[C@H]2[C@H]1CO
composite z-score: -0.213
//
compound: COCCOC(=O)N1C(=O)[C@@]2(c3cc(C#CCCO)ccc31)[C@H](c1ccc(OCCO)cc1)N1[C@H](c3ccccc3)[C@H](c3ccccc3)OC(=O)[C@H]1[C@@H]2C(=O)Nc1nc2ccccc2s1
composite z-score: 0.0947
//
compound: COc1ccc([Si](C)(C)[C@@H]2[C@@H](CCO)O[C@]3(C(=O)N(Cc4cccc(NC(=O)[C@H](C)O)c4)c4ccccc43)[C@H]2C)cc1
composite z-score: 0.638
//
compound: C=CCNC(=O)[C@@H]1[C@H]2C(=O)O[C@H](c3ccccc3)[C@H](c3ccccc3)N2[C@H](c2ccc(OCCO)cc2)[C@@]12C(=O)N(C(=O)OCCOC)c1ccc(C#Cc3ccc(OC)cc3)cc12
composite z-score: -0.272
//
compound: COc1ccc([Si](C)(C)[C@@H]2[C@@H](CC(=O)N3CCC[C@H]3CO)O[C@]3(C(=O)N(Cc4cccc(N5C(=O)COc6ccccc65)c4)c4ccccc43)[C@H]2C)cc1
composite z-score: -0.368
//
compound: NC(=O)[C@H]1[C@@H]2C(=O)O[C@@H](c3ccccc3)[C@@H](c3ccccc3)N2[C@@H](c2ccc(OCCO)cc2)[C@]12C(=O)Nc1ccc(C#CCCO)cc12
composite z-score: -0.387
//
compound: CC(C)[Si](C#C[Si](C(C)C)(C(C)C)C(C)C)(O[C@H](c1ccccc1)c1cn(Cc2ccccc2)nn1)C(C)C
composite z-score: 0.256
//
compound: C=C(COC)C(=O)CC[C@@H](OC(C)=O)c1cccc(OCCO)c1
composite z-score: -0.0827
//
compound: CCCCC(O)C1C=CC2C(=O)N(C)C(=O)C2N1N(c1ccccc1)c1ccccc1 (centres undefined)
composite z-score: 1.53
//
compound: C=CCN1C(=O)[C@]2(CCC(=O)OC(C)(C)C)N=C(c3ccc(OCCCO)cc3)O[C@@H]2c2ccccc21
composite z-score: -0.292
//
compound: COc1cc(NN2C(C(O)c3ccc(N(C)C)cc3)C=CC3C(=O)N(c4ccccc4)C(=O)C32)cc(OC)c1OC (centres undefined)
composite z-score: 0.531
//
compound: CCCN1C(=O)[C@@]2(Cc3ccccc31)N=C(c1ccc(OCCCO)cc1)O[C@H]2c1ccccc1
composite z-score: 0.587
//
compound: C[N+](C)(C)CCCC[C@@H]1NC(=O)[C@@H]2C[C@H](C(=O)NCCCCCCN)[C@H](c3cccc(OCCO)c3)N2C1=O
composite z-score: 0.662
//
compound: NC(=O)NCC#Cc1ccc2c(c1)[C@]1(C(=O)N2)[C@H](c2ccccc2OCCO)N2[C@H](c3ccccc3)[C@H](c3ccccc3)OC(=O)[C@H]2[C@@H]1C(=O)O
composite z-score: -0.359
//
compound: CC(C)N1CC=CC23O[C@@H]4C=CCCOC(=O)C4[C@H]2C(=O)N(CCCO)[C@@H]3C1=O (some centres undefined)
composite z-score: -0.0546
//
compound: C=CC[C@H](OC(=O)Nc1ccc(SC)cc1)c1ccc(O)c2ccccc12
composite z-score: -0.134
//
compound: CN(C)C(=O)[C@@]1(Cc2ccccc2CN=[N+]=[N-])N=C(c2ccc(OCCCO)cc2)O[C@H]1c1ccccc1N=[N+]=[N-]
composite z-score: 1.84
//
compound: COC(=O)c1c(CC[C@@H](CO)NC(=O)N[C@@H](C)Cn2cc(-c3ccccn3)nn2)oc(C(C)=O)c1C(=O)OC
composite z-score: -0.0926
//
compound: CCCCN1CC=CC23O[C@@H]4/C=C\CCC(C)OC(=O)C4[C@H]2C(=O)N(CCCO)[C@@H]3C1=O (some centres undefined)
composite z-score: -0.362
